- System: VchCAST RNA-guided transposition machinery (E. coli BL21(DE3) host, lacZ target)
- PROCEDURE TEXT: relative integration efficiency (T-LR orientation) vs wild-type transposon end (log2 (normalized fold change)); transposon end mutated: right end (5 bp flank + 75 bp right end); higher = more efficient transposition
READOUT: relative integration efficiency (log2)
// no unit string in output, number only

Entry under test: `ACATTTGTTGAATGTACCATAAAATGATAATTACACCCATAAATTGATAATTATCACACCCATAAATTGATATTGCCTCTGATCATAGTCAGACCAACATTGCTACGACCCGTATTCGCACCGACAC` . Its relative integration efficiency (log2) was -1.92

Entry under test: `ACATTTGTCGATACAACCATAAAATGATAATTACACCCATAAATGGATCATTATCACACCCAATTTAACTATAACGCTCTGATCATAGTCAGACCAACATTGCTACGACCCGTATTCGCACCGACAC` . Its relative integration efficiency (log2) was 0.97

Entry under test: `ACATTTGTTGATACAACCATAAAATGATAATTACACCCATAAATTGATAATTATCACACCCATAAATTGATATTGCCTCTTTATGCAGGACGACGTACGCGTTCCATATAAACCTGTGCACCGACAC` . Its relative integration efficiency (log2) was -0.104

Entry under test: `ACATTTGTTGATACAACCATAAAATGATAATTACACCCATTAATTGATAATAATGACACCGAATTTAACTATAACGCTCTGATCATAGTCAGACCAACATTGCTACGACCCGTATTCGCACCGACAC` . Its relative integration efficiency (log2) was 2.24

Entry under test: `ACATTTGTTGATACAACCATAAGTTGATATTTTCACCCATAAATTGATATTGCTCACAACCATAAAGTGATATTTACTCTGATCATAGTCAGACCAACATTGCTACGACCCGTATTCGCACCGACAC` . Its relative integration efficiency (log2) was -0.333

Entry under test: `ACATTTGTTGATACACCCATAAATTGATATTGCCACCCATAAATTGATAATTATCACAACCATAAAGTGATATTTACTCTGATCATAGTCAGACCAACATTGCTACGACCCGTATTCGCACCGACAC` . Its relative integration efficiency (log2) was -0.376

Entry under test: `ACATTTGTTGATACAACCATAAAATGATAATTACAAAACGCCCGGTCGCCGGCGACACAAACGCCCGGTCGCGGTAAGAGGATCATAGTCAGACCAACATTGCTACGACCCGTATTCGCACCGACAC` . Its relative integration efficiency (log2) was 1.07

Entry under test: `ACATTTCTTGATACAACCATAAAATGATAATTACACCCATAAATTCATCATTATCACACCCAATTTAACTATAACGCTCTGATCATAGTCAGACCAACATTGCTACGACCCGTATTCGCACCGACAC` . Its relative integration efficiency (log2) was 0.193

Entry under test: `ACATTTGTTGATACAACCATAAAAGGATCATTACACCCATAAATTGATAATTATCCCACCCCATTTAACTATAACGCTCTGATCATAGTCAGACCAACATTGCTACGACCCGTATTCGCACCGACAC` . Its relative integration efficiency (log2) was 1.38

Entry under test: `ACATTTGTTGATACAACCATAAAATGATAATTACACCCATAAATTGATAATTATCAACCCCATAAATTGATATTGCCTCTGATCATAGTCAGACCAACATTGCTACGACCCGTATTCGCACCGACAC` . Its relative integration efficiency (log2) was 1.26

---

- Tested on: VchCAST RNA-guided transposition machinery (E. coli BL21(DE3) host, lacZ target)
- PROCEDURE TEXT: relative integration efficiency (T-LR orientation) vs wild-type transposon end (log2 (normalized fold change)); transposon end mutated: right end (5 bp flank + 75 bp right end); higher = more efficient transposition
Label rule not met if relative integration efficiency (log2) falls below 0.5; label rule met in every other case.

[ask] State whether the measured relative integration efficiency (log2) reaches 0.5, counting equality as reaching it, for `ACATTTGTTGATACAACCATAAAATGATAATTACTCTGATCATAGTCAGACCAACATTGCTACGACCCGTATTCGCACCGACACACCCATAAATTGATAATTATCACACCCATAAATTGATATTGCC`
[reply] rule met

[ask] State whether the measured relative integration efficiency (log2) reaches 0.5, counting equality as reaching it, for `ACATTTGTTGATACAACCATAAAATGATAAATACACCCATAAATTGATAATAATGACACCGAATTTAACTATAACGCTCTGATCATAGTCAGACCAACATTGCTACGACCCGTATTCGCACCGACAC`
[reply] rule met

[ask] State whether the measured relative integration efficiency (log2) reaches 0.5, counting equality as reaching it, for `ACATTTGTTGATACAACCATAAAATGATAATTACACCCATAAATTGATAATTATCACACCCATAAATTGATATTGCCTCTGATCAGGCAGTGAGCGCAACGCAATTTAGTCAGACCAGCACCGACAC`
[reply] rule not met

[ask] State whether the measured relative integration efficiency (log2) reaches 0.5, counting equality as reaching it, for `ACATTTGTTGATACAACCATAAAATGATAATTACCCCCATCAATTGATAATTATCACACCCCATTTAACTATAACGCTCTGATCATAGTCAGACCAACATTGCTACGACCCGTATTCGCACCGACAC`
[reply] rule met

[ask] State whether the measured relative integration efficiency (log2) reaches 0.5, counting equality as reaching it, for `ACATTTGTTGATACACCCATAAATTGATAATTACAACCATAAAGTGATATTTATCACAACCATAAGTTGATATTTTCTCTGATCATAGTCAGACCAACATTGCTACGACCCGTATTCGCACCGACAC`
[reply] rule not met

---

- Tested on: VchCAST RNA-guided transposition machinery (E. coli BL21(DE3) host, lacZ target)
- PROCEDURE TEXT: relative integration efficiency (T-RL orientation) vs wild-type transposon end (log2 (normalized fold change)); transposon end mutated: right end (5 bp flank + 75 bp right end); higher = more efficient transposition
READOUT: relative integration efficiency (log2)
// no unit string in output, number only

Entry under test: `ACATTTGTTGATACAACCATAAAATGATAATTACACCCATAAATTGATAATGCGACACAAACGCCCGGTCGCGGTAAGAGGATCATAGTCAGACCAACATTGCTACGACCCGTATTCGCACCGACAC` . Its relative integration efficiency (log2) was -0.485

Entry under test: `ACATTTGTTGATACAACCATAAAATGATAATTACACCCATAAATTGTAAATTATCACACCCATAAATTGATATTGCCTCTGATCATAGTCAGACCAACATTGCTACGACCCGTATTCGCACCGACAC` . Its relative integration efficiency (log2) was -0.602

Entry under test: `ACATTTGTTGATACAACCATAAAATCATCATTACACCCATCAATTGATAATTATCCCACCCCATTTAACTATAACGCTCTGATCATAGTCAGACCAACATTGCTACGACCCGTATTCGCACCGACAC` . Its relative integration efficiency (log2) was -4.36

Entry under test: `ACATTTGTTGATACAACCATAAAATGGTAATTCCACCCCTAAATTGATAATTATCACACCCAATTTAACTATAACGCTCTGATCATAGTCAGACCAACATTGCTACGACCCGTATTCGCACCGACAC` . Its relative integration efficiency (log2) was -3.6

Entry under test: `ACATTTGTTCATACAACCATAAAATGATAATTACACCCATAAATTCATAATTATCACACCCAATTTAACTATAACGCTCTGATCATAGTCAGACCAACATTGCTACGACCCGTATTCGCACCGACAC` . Its relative integration efficiency (log2) was -2.52

Entry under test: `ACATTTGTTGATACAACCCTAAAATGATAATTACACCCATAAATTGATCATTATCACACCCAATTTAACTATAACGCTCTGATCATAGTCAGACCAACATTGCTACGACCCGTATTCGCACCGACAC` . Its relative integration efficiency (log2) was -3

Entry under test: `ACATTTGTTGATACAACCATAAAATGATAAAATGACCCATAAATTGATAATTATCACACCCATAAATTGATATTGCCTCTGATCATAGTCAGACCAACATTGCTACGACCCGTATTCGCACCGACAC` . Its relative integration efficiency (log2) was -0.49

Entry under test: `ACATTTGTTGATACAACCATAAAATGATAATTCACCCATAAATTGATAATTATCACACCCACATTTAACTATAACGCTCTGATCATAGTCAGACCAACATTGCTACGACCCGTATTCGCACCGACAC` . Its relative integration efficiency (log2) was -2.03

Entry under test: `ACATTTGTTGATACAACCATAAAATGATAATTAATAATTATTTATAATCAGCAACACCCATAAATTGATAATTATCAACAAACGCCCGGTCGCGGTACTCTGATCATAGTCAGACCAACATTGCTAC` . Its relative integration efficiency (log2) was -3.18

Entry under test: `ACATTTGTGGATACAACCATAAAACGATAATTACACCCATAAATGGATAATTATCACACCCAATTTAACTATAACGCTCTGATCATAGTCAGACCAACATTGCTACGACCCGTATTCGCACCGACAC` . Its relative integration efficiency (log2) was -1.46
